Taken from patent US20240109912A1.

- Tested on: RNA polymerase II Serine 5 phosphorylation (CDK7) in A549 cells
MEASURE: IC50 (nM)

**Query** Give IC50 for C=CC(=O)N1CC(N2CC=C(c3ccc4c(c3)Nc3ncnc(N5CCOCC5)c3CO4)CC2)C1
**Result** 2340

**Query** Give IC50 for C=CC(=O)N1CCC(N2CC(c3cc(C)c4c(c3)Nc3ncnc(N5CCOCC5)c3CO4)C2)C(F)C1 (stereo not shown) [compound 28]
**Result** 759

**Query** Give IC50 for C=CC(=O)N1CC(N2CCC(c3cc(F)c4c(c3)Nc3ncnc(N5CCOCC5)c3[C@H](C)O4)CC2)C1 (single isomer, unassigned)
**Result** 178

**Query** Give IC50 for C=CC(=O)N1CC[C@H](N2CC(c3cc(C)c4c(c3)Nc3ncnc(N5CCOCC5)c3CO4)C2)C1
**Result** 380

**Query** Give IC50 for C=CC(=O)N1CC(N2CCC(c3cc(F)c4c(c3)Nc3ncnc(-c5cnn(C)c5)c3[C@@H](C)O4)CC2)C1 (single isomer, unassigned)
**Result** 123

**Query** Give IC50 for C=CC(=O)N1CCC(N2CC(c3cc(C)c4c(c3)Nc3ncnc(N5CCOCC5)c3CO4)C2)C1 (stereo not shown)
**Result** 457

**Query** Give IC50 for C=CC(=O)N1CC(N2CCN(c3cc4c(cn3)OCc3c(ncnc3N3CCOCC3)N4)CC2)C1
**Result** 1350

**Query** Give IC50 for C=CC(=O)N1CC[C@@H](N2CC(c3cc4c(c(C5CC5)c3)OCc3c(ncnc3N3CCS(=O)(=O)CC3)N4)C2)C1 (single isomer, unassigned)
**Result** 427

**Query** Give IC50 for CC#CC(=O)N1CC(OC2CCN(c3cc(C)c4c(c3)Nc3ncnc(N5CCS(=O)(=O)CC5)c3[C@@H](C)O4)CC2)C1
**Result** 912

**Query** Give IC50 for C#Cc1cc(C2CCN(C3CN(C(=O)C#CC)C3)CC2)cc2c1O[C@H](C)c1c(ncnc1N1CCS(=O)(=O)CC1)N2
**Result** 457

[a] C=CC(=O)N1CC[C@H](N2CCC(c3cc(F)c4c(c3)Nc3ncnc(N5CCOCC5)c3CO4)CC2)C1 (single isomer, unassigned)
[b] C=CC(=O)N1CC[C@@H](N2CC(c3cc(F)c4c(c3)Nc3ncnc(N5CCOCC5)c3CO4)C2)C1 (single isomer, unassigned)
**Query** Of a and b , whose reported IC50 is numerically smaller? Please respond with the label that marks your chosen entry.
**Result** a
(a: 200 nM, b: 933 nM)

* * *

Observed IC50 for RNA polymerase II Serine 5 phosphorylation (CDK7) in A549 cells, reported per entry below.
MEASURE: IC50 (nM)

Take a look at these entries with their results.
**Query** Give IC50 for CC#CC(=O)N1CCOC([C@H]2C[C@@H](c3cc(C)c4c(c3)Nc3ncnc(N5CCS(=O)(=O)CC5)c3[C@@H](C)O4)C2)C1 (single isomer, unassigned) [compound 188]
**Result** 389

**Query** Give IC50 for C=CC(=O)N1CC(N2CCC(c3cc4c(cc3C#N)OCc3c(ncnc3N3CCOCC3)N4)CC2)C1
**Result** 2000

**Query** Give IC50 for C=CC(=O)N1CCC(N2CC(c3cc(C)c4c(c3)Nc3ncnc(N5CCS(=O)(=O)CC5)c3CO4)C2)CC1
**Result** 81.3

**Query** Give IC50 for CC#CC(=O)N1CCN([C@H]2CC[C@@H](c3cc(C)c4c(c3)Nc3ncnc(N5CCS(=O)(=O)CC5)c3[C@@H](C)O4)CC2)CC1
**Result** 209

[a] [2H]C([2H])([2H])C#CC(=O)N1CC[C@H](N2CC(c3cc(C)c4c(c3)Nc3ncnc(N5CCS(=O)(=O)CC5)c3[C@@H](C)O4)C2)C1 (single isomer, unassigned)
[b] C=CC(=O)N1CC(N2CCC(c3cc4c(c(C)n3)OCc3c(ncnc3N3CCS(=O)(=O)CC3)N4)CC2)C1
**Query** Of a and b , whose reported IC50 is numerically smaller? Please respond with the label that marks your chosen entry.
**Result** a
